# Tested on: Mycobacterium tuberculosis
# assay_procedure: Antimicrobial activity against Mycobacterium tuberculosis H37Rv by Alamar blue assay
# Format: functional
readout_label: log10 IC90 (log10 of the value in µM)

> print(dat)
                                   compound               target.system  readout.label  test.result
1  CN1CC2C(=O)N(Cc3ccccc3)C(=O)C2C12C(=O)c1ccccc1C2=O (stereo not given)  Mycobacterium tuberculosis     log10 IC90         1.98
2  COc1ccc(N2C(=O)C3CN(C)C4(C(=O)c5ccccc5C4=O)C3C2=O)cc1 (stereo not given)  Mycobacterium tuberculosis     log10 IC90         1.55
3  CN1CC2C(=O)N(c3cccc(F)c3)C(=O)C2C12C(=O)c1ccccc1C2=O (stereo not given)  Mycobacterium tuberculosis     log10 IC90         1.68
4  CN1CC2C(=O)N(c3ccc(F)cc3)C(=O)C2C12C(=O)c1ccccc1C2=O (stereo not given)  Mycobacterium tuberculosis     log10 IC90         0.90
5  CCc1ccc(N2C(=O)C3CN(C)C4(C(=O)c5ccccc5C4=O)C3C2=O)cc1 (stereo not given)  Mycobacterium tuberculosis     log10 IC90         1.68

---

pIC50: −log10 of the molar value.
As an illustration, consider measured pIC50 for compounds on UniProtKB P22303.
Sequence (P22303 whole entry): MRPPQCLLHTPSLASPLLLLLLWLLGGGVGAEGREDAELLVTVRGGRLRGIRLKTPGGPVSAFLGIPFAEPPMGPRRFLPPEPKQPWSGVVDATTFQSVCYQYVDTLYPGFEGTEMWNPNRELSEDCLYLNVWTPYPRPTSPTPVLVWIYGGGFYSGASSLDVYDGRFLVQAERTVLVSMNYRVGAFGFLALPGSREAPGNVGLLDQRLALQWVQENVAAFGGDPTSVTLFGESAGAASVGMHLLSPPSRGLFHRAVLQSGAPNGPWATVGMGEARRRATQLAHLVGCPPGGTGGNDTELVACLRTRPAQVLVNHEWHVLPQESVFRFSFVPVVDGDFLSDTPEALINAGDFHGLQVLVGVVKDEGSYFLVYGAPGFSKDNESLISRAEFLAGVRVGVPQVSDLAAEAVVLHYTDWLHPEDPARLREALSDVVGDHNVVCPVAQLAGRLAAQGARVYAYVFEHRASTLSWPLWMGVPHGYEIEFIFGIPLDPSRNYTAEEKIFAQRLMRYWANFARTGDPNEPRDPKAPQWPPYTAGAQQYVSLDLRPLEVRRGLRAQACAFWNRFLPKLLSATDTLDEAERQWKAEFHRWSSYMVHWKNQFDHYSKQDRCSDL
readout_label: pIC50

> print(dat)
                                   compound  test.result
1  CN1CC2C(=O)N(c3cccc(F)c3)C(=O)C2C12C(=O)c1ccccc1C2=O (centres undefined)         4.10
2  CN1CC2C(=O)N(c3ccc([N+](=O)[O-])cc3)C(=O)C2C12C(=O)c1ccccc1C2=O (centres undefined)         5.18
3  COc1ccccc1N1C(=O)C2CN(C)C3(C(=O)c4ccccc4C3=O)C2C1=O (centres undefined)         4.95
4  CN1C(=O)C2CN(C)C3(C(=O)c4ccccc4C3=O)C2C1=O (centres undefined)         5.68

---

Measured IC50 by item
# Tested on: Mycobacterium tuberculosis
# assay_procedure: Antimicrobial activity against Mycobacterium tuberculosis H37Rv by Alamar blue assay
# Format: functional
readout_label: IC50 (µM)

> print(dat)
                                   molecule               target.system  qualifier  test.result
1  CN1CC2C(=O)N(c3cccc(F)c3)C(=O)C2C12C(=O)c1ccccc1C2=O (stereo unspecified)  Mycobacterium tuberculosis          =         28.6
2  COc1ccc(N2C(=O)C3CN(C)C4(C(=O)c5ccccc5C4=O)C3C2=O)cc1 (stereo unspecified)  Mycobacterium tuberculosis          =         17.2
3  CN1CC2C(=O)N(C3CCCCC3)C(=O)C2C12C(=O)c1ccccc1C2=O (stereo unspecified)  Mycobacterium tuberculosis          =         15.9
4  CN1C(=O)C2CN(C)C3(C(=O)c4ccccc4C3=O)C2C1=O (stereo unspecified)  Mycobacterium tuberculosis          =         22.9
5  CN1CC2C(=O)N(c3ccccc3)C(=O)C2C12C(=O)c1ccccc1C2=O (stereo unspecified)  Mycobacterium tuberculosis          =         13.2
6  CC[C@@H](CO)NCCN[C@@H](CC)CO [ETHAMBUTOL]  Mycobacterium tuberculosis          <         1.56
